- measurement-target: recombinant eIF4E (Homo sapiens (Human))
- Sequence (P06730 whole entry): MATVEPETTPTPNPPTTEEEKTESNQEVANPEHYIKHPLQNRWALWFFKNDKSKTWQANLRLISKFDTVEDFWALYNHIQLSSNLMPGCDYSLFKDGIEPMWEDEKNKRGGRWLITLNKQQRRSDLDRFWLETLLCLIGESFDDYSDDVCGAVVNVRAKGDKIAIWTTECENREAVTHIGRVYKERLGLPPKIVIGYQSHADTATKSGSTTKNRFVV
- measurement-notes: Fluorescence polarization competition assay for eIF4E binding potency
- condition-details: inhibition of eIF4E/EDA-m7GDP-ATTO-550 binding by 50%; Table 4B calculated values; read-out: IC50
quantity-name: IC50 (nM)

molecule	IC50 / nM
Cc1cc(-c2cc(Cl)ccc2OCCn2c(C)nc3cc(C(F)(F)F)c[n+]([O-])c3c2=O)c2scc(C(=O)O)c2n1	48.2
Cc1nc2cnc(N(C)C3CCN(CC(F)F)CC3)c(C#N)c2c(=O)n1CC#Cc1ccc(Cl)cc1-c1ccnc2c(C(=O)O)csc12	19.9
CCc1nc(C)c2nc(C)n(CCOc3ccc(Cl)cc3-c3cc(C)nc4c(C(=O)O)csc34)c(=O)c2c1C#N	17.7
Cc1cc(-c2cc(Cl)ccc2OCCn2c(C)nc3cc(C(F)F)c(C)c(C#N)c3c2=O)c2scc(C(=O)O)c2n1	6.72
CC(=O)NS(=O)(=O)c1csc2c(-c3cc(Cl)ccc3OCCn3c(C)nc4c(F)cc(C(F)F)c(C#N)c4c3=O)cc(C)nc12	5.57

a: Cc1nc2cc(CN(C)C)c(OC(F)(F)F)c(C#N)c2c(=O)n1CCOc1ccc(Cl)cc1-c1ccnc2c(C(=O)O)csc12
b: Cc1nc2cc(C(F)(F)F)c(CN(C)C)c(C#N)c2c(=O)n1CCOc1cc(F)c(Cl)cc1-c1ccnc2c(C(=O)O)csc12
c: CC(=O)N(C)c1ncc2nc(C)n(CCOc3ccc(Cl)cc3-c3cc(C)nc4c(C(=O)O)csc34)c(=O)c2c1C#N
d: C#Cc1ccc(C#N)c2c(=O)n(CCOc3ccc(Cl)cc3-c3ccnc4c(C(=O)O)csc34)c(C)nc12
Query: Arrange by IC50, high to low. Field: ranking. Enter the labels in the order requested.
Result: a, d, b, c
(a: 50.9 nM, d: 35.4 nM, b: 8.67 nM, c: 5.08 nM)

* * *

- measurement-target: recombinant eIF4E (Homo sapiens (Human))
- measurement-notes: Fluorescence polarization competition assay for eIF4E binding potency
- condition-details: fluorescence polarization competition, 75 nM recombinant eIF4E, 20 nM EDA-m7GDP-ATTO-550; IC50 class; read-out: elF4E FP
pIC50: −log10 of the molar value.
quantity-name: pIC50

Below: 8 molecules and their reported pIC50.
molecule	endpoint-value
Cc1nc2cc(CN(C)C)c(OC(F)F)c(C#N)c2c(=O)n1CCOc1ccc(Cl)cc1-c1ccnc2c(C(=O)O)csc12	> 7.30
Cc1nc2cnccc2c(=O)n1CCOc1ccc(Cl)cc1-c1cccc(C(=O)O)c1	6.00 to 7.30
Cc1nc2cc(C(F)(F)F)cc(C#N)c2c(=O)n1CCOc1cnc(C#N)nc1-c1ccnc2c(C(=O)O)csc12	6.00 to 7.30
CC(=O)c1csc2c(-c3cc(Cl)ccc3C#CCn3c(C)nc4cc(C(F)(F)F)c(N5CC6(C5)CN(C5CC5)C6)c(C#N)c4c3=O)ccnc12	> 7.30
Cc1cc(-c2cc(Cl)ccc2OCCn2c(C)nc3cnc(O)c(C#N)c3c2=O)c2scc(C(=O)O)c2n1	> 7.30
Cc1nc2cnc(/C=C/CN3CC(F)C3)c(C#N)c2c(=O)n1CCOc1ccc(Cl)cc1-c1ccnc2c(C(=O)O)csc12	> 7.30
Cc1nc2cnc(OC3CCNCC3)c(C#N)c2c(=O)n1CCOc1ccc(Cl)cc1-c1ccnc2c(C(=O)O)csc12	> 7.30
Cc1cc(-c2cc(Cl)ccc2OCCn2c(C)nc3cnc(N(C)C4CCN(C)CC4)c(C#N)c3c2=O)c2sc(C)c(C(=O)O)c2n1	> 7.30

Consider Cc1nc2cnc(N(C)C3CCN(C4CC(F)(F)C4)CC3)c(C#N)c2c(=O)n1CC#Cc1ccc(Cl)cc1-c1ccnc2c(C(=O)NS(=O)(=O)c3cccnc3)csc12 . Its measured pIC50 is > 7.30

Consider COC(=O)c1csc2c(-c3cc(Cl)ccc3C#CCn3c(C)nc4cnc(N(C)C5CCN(CC(F)F)CC5)c(C#N)c4c3=O)ccnc12 . Its measured pIC50 is 6.00 to 7.30

Consider Cc1nc2cncc(C#N)c2c(=O)n1CC#Cc1ccc(Cl)cc1-c1ccnc2c(C(=O)O)csc12 . Its measured pIC50 is > 7.30

Data provenance: patent US11286268B1
